system: CYP3A4; test: CYP induction (enzyme activity) in cryopreserved human hepatocytes, CYP3A4; format: in vitro ADME; settings: human, plated cryopreserved human hepatocytes, donor two, 0.15 µM
ENDPOINT: fold induction at 72 h, 0.15 µM

MOLECULE: C[C@]12CC[C@@H]3c4ccc(B(O)O)cc4C[C@@H](CCCCCCCCC[S+]([O-])CCCC(F)(F)C(F)(F)F)[C@H]3[C@@H]1CC[C@@H]2O (stereo partly shown)
ASSAY VALUE: 0.797

###

test: 4-week repeat-dose toxicity/TK study in dogs; format: in vivo, beagle dogs; conditions: male, beagle, dog, plasma, po, 100 mg/kg/day, day 28, PO 100 mg/kg/day, M
ENDPOINT: Cmax (ng/mL)

MOLECULE: C[C@]12CC[C@@H]3c4ccc(B(O)O)cc4C[C@@H](CCCCCCCCC[S+]([O-])CCCC(F)(F)C(F)(F)F)[C@H]3[C@@H]1CC[C@@H]2O (stereo partly shown)
ASSAY VALUE: 3340
